- System Name: Aβ42 (Homo sapiens, UniProt P05067)
- Sequence (P05067 672-713): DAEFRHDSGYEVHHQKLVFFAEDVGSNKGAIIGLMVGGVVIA
- Assay Procedure: Th-T (thioflavin-T) assay of Aβ42 aggregation
- Type: biochemical
- Study Conditions: column suffix _50; reading M5
Measurement Name: Th-T assay signal, mean of three wells (Fig. 7a)
// return just the number, without any unit appended

INSERT INTO results (compound, system_name, measured_number) VALUES
  ('C=C1CCC2C(C)(CCC=C(C)C)C(O)CCC2(C)C1Cc1c(OC)oc(C)c(C(=O)OC)c1=O (centres unmarked)', 'Aβ42 (Homo sapiens, UniProt P05067)', 0.4526),
  ('C=C1CCC2C(C)(CCC=C(C)C)C(O)CCC2(C)C1Cc1c(OC)oc(CO)c(C(=O)OC)c1=O (centres unmarked)', 'Aβ42 (Homo sapiens, UniProt P05067)', 0.2182),
  ('C=C1CC[C@@H]2[C@](C)(CC[C@H]3O[C@H](C=C(C)C)C[C@@]23C)[C@@H]1Cc1c(OC)oc(CO)c(C(=O)OC)c1=O', 'Aβ42 (Homo sapiens, UniProt P05067)', 0.2111),
  ('C=C1CCC2C(C)(CCC=C(C)C)C(O)CCC2(C)C1Cc1c(OC)oc(CO)c(C)c1=O (centres unmarked)', 'Aβ42 (Homo sapiens, UniProt P05067)', 2.734);

API: the following record is the query input.
Qu. Endpoint output: Th-T assay signal, mean of three wells (Fig. 7a) of C=C1CC[C@@H]2[C@](C)(CC[C@H]3O[C@H](C=C(C)C)C[C@@]23C)[C@@H]1Cc1c(OC)oc(CO)c(C)c1=O . Value?
Ans. 0.2172
